Target: panel of 442 kinases (Homo sapiens)
Construct: purchased Ambit Biosciences (scanMAXX KINOMEscan)
Test: biochemical
Assay type: binding
Conditions: CDKL3; 1 µM; read-out: % of control at 1 µM
measure: remaining activity at 1 µM (%)

>>> reported_value("FC(F)c1nc2ccccc2n1-c1nc(N2CCOCC2)nc(N2CCOCC2)n1 [ZSTK474]")
100
>>> reported_value("Cn1c(=O)n(-c2ccc(C(C)(C)C#N)cc2)c2c3cc(-c4cnc5ccccc5c4)ccc3ncc21 [Dactolisib]")
57
>>> reported_value("Nc1cc(C(F)(F)F)c(-c2cc(N3CCOCC3)nc(N3CCOCC3)n2)cn1 [Buparlisib]")
92
>>> reported_value("COc1ncc(-c2ccc3nccc(-c4ccnnc4)c3c2)cc1NS(=O)(=O)c1ccc(F)cc1F [Omipalisib]")
100

---

Target: panel of 442 kinases (Homo sapiens, UniProt P80192)
Construct: purchased Ambit Biosciences (scanMAXX KINOMEscan)
Sequence (P80192 whole entry): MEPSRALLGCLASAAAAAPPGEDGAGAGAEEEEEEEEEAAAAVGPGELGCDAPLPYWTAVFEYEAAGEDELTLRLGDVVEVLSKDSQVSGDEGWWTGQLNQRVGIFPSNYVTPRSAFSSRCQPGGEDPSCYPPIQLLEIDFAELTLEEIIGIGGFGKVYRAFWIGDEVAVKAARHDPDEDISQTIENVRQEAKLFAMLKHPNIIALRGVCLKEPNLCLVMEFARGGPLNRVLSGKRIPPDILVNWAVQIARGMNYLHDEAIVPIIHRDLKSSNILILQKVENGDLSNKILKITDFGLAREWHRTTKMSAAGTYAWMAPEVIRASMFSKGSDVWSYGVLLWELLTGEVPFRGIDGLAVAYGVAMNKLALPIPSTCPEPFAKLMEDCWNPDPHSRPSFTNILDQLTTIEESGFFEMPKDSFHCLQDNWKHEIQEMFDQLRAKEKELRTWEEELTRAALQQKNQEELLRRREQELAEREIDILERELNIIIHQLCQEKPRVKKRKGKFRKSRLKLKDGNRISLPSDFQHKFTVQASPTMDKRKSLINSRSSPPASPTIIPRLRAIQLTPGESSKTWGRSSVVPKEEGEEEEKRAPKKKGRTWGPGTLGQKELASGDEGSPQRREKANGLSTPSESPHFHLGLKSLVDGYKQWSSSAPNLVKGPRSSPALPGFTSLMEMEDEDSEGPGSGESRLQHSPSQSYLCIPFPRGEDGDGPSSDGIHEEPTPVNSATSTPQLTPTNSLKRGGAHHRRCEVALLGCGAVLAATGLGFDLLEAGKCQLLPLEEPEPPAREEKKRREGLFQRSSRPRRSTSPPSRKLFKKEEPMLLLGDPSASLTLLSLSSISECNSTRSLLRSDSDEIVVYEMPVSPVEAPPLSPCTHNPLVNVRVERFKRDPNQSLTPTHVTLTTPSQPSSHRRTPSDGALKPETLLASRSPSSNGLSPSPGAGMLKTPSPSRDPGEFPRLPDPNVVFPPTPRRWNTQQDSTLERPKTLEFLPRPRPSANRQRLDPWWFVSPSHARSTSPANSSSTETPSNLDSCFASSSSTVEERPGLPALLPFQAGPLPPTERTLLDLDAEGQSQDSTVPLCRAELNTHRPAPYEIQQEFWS
Assay: biochemical
Assay type: binding
Details: kinase MLK1; 1 µM; read-out: % of control at 1 µM
measure: remaining activity at 1 µM (%)

>>> reported_value("COc1ncc(-c2ccc3nccc(-c4ccnnc4)c3c2)cc1NS(=O)(=O)c1ccc(F)cc1F")
100
>>> reported_value("Cn1c(=O)n(-c2ccc(C(C)(C)C#N)cc2)c2c3cc(-c4cnc5ccccc5c4)ccc3ncc21")
86
>>> reported_value("FC(F)c1nc2ccccc2n1-c1nc(N2CCOCC2)nc(N2CCOCC2)n1")
99
>>> reported_value("Nc1cc(C(F)(F)F)c(-c2cc(N3CCOCC3)nc(N3CCOCC3)n2)cn1")
92

---

remaining activity at 1 µM reference
Target: panel of 442 kinases (Homo sapiens)
Construct: purchased Ambit Biosciences (scanMAXX KINOMEscan)
Assay: biochemical
Format: binding
Conditions: kinase TRKB; 1 µM; read-out: TRKB (% of control at 1 µM)
measure: remaining activity at 1 µM (%)

>>> reported_value("Nc1cc(C(F)(F)F)c(-c2cc(N3CCOCC3)nc(N3CCOCC3)n2)cn1 [Buparlisib]")
96
>>> reported_value("FC(F)c1nc2ccccc2n1-c1nc(N2CCOCC2)nc(N2CCOCC2)n1 [ZSTK474]")
100
>>> reported_value("Cn1c(=O)n(-c2ccc(C(C)(C)C#N)cc2)c2c3cc(-c4cnc5ccccc5c4)ccc3ncc21 [Dactolisib]")
61
>>> reported_value("COc1ncc(-c2ccc3nccc(-c4ccnnc4)c3c2)cc1NS(=O)(=O)c1ccc(F)cc1F [Omipalisib]")
100

---

Molecular target: FLT3 (D835Y mutant) (Homo sapiens, UniProt P36888, D835Y)
Construct: purchased Ambit Biosciences (scanMAXX KINOMEscan)
Sequence (P36888 27-993 D835Y): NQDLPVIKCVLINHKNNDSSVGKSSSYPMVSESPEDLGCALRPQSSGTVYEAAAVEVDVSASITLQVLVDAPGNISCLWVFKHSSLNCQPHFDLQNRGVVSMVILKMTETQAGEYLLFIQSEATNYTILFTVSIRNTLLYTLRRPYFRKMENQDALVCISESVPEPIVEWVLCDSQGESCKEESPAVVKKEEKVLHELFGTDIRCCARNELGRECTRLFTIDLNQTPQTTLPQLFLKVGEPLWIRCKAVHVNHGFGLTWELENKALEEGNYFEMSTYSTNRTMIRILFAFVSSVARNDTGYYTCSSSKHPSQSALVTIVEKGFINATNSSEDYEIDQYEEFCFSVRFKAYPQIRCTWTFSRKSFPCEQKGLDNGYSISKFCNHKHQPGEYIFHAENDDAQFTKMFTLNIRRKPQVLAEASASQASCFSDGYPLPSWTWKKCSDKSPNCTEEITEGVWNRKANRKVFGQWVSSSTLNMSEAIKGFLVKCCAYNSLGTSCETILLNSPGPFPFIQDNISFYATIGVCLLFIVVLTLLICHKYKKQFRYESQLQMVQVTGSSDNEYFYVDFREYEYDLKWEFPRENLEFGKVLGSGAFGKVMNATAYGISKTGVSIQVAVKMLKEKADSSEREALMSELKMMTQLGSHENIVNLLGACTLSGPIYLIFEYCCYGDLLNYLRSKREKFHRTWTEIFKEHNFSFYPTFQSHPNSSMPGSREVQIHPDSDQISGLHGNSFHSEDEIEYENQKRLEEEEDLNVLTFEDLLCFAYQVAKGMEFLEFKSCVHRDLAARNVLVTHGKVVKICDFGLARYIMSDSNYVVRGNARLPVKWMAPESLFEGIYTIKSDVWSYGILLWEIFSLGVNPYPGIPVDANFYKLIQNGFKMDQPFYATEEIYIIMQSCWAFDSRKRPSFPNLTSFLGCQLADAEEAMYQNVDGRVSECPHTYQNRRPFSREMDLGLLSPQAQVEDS
Assay: KINOMEscan, FLT3 D835Y
Type: binding
Conditions: FLT3(D835Y); 1 µM; read-out: % of control at 1 µM
measure: remaining binding at 1 µM (%)

>>> reported_value("Nc1cc(C(F)(F)F)c(-c2cc(N3CCOCC3)nc(N3CCOCC3)n2)cn1")
70
>>> reported_value("Cn1c(=O)n(-c2ccc(C(C)(C)C#N)cc2)c2c3cc(-c4cnc5ccccc5c4)ccc3ncc21")
13
>>> reported_value("COc1ncc(-c2ccc3nccc(-c4ccnnc4)c3c2)cc1NS(=O)(=O)c1ccc(F)cc1F")
100
>>> reported_value("FC(F)c1nc2ccccc2n1-c1nc(N2CCOCC2)nc(N2CCOCC2)n1")
84

---

remaining activity at 1 µM reference
Target: panel of 442 kinases (Homo sapiens)
Construct: purchased Ambit Biosciences (scanMAXX KINOMEscan)
Assay: biochemical
Format: binding
Details: kinase TRPM6; 1 µM; read-out: TRPM6 (% of control at 1 µM)
measure: remaining activity at 1 µM (%)

>>> reported_value("FC(F)c1nc2ccccc2n1-c1nc(N2CCOCC2)nc(N2CCOCC2)n1")
74
>>> reported_value("Cn1c(=O)n(-c2ccc(C(C)(C)C#N)cc2)c2c3cc(-c4cnc5ccccc5c4)ccc3ncc21")
62
>>> reported_value("Nc1cc(C(F)(F)F)c(-c2cc(N3CCOCC3)nc(N3CCOCC3)n2)cn1")
76
>>> reported_value("COc1ncc(-c2ccc3nccc(-c4ccnnc4)c3c2)cc1NS(=O)(=O)c1ccc(F)cc1F")
100

---

Target: panel of 442 kinases (Homo sapiens, UniProt O75582)
Construct: purchased Ambit Biosciences (scanMAXX KINOMEscan)
Sequence (O75582 whole entry): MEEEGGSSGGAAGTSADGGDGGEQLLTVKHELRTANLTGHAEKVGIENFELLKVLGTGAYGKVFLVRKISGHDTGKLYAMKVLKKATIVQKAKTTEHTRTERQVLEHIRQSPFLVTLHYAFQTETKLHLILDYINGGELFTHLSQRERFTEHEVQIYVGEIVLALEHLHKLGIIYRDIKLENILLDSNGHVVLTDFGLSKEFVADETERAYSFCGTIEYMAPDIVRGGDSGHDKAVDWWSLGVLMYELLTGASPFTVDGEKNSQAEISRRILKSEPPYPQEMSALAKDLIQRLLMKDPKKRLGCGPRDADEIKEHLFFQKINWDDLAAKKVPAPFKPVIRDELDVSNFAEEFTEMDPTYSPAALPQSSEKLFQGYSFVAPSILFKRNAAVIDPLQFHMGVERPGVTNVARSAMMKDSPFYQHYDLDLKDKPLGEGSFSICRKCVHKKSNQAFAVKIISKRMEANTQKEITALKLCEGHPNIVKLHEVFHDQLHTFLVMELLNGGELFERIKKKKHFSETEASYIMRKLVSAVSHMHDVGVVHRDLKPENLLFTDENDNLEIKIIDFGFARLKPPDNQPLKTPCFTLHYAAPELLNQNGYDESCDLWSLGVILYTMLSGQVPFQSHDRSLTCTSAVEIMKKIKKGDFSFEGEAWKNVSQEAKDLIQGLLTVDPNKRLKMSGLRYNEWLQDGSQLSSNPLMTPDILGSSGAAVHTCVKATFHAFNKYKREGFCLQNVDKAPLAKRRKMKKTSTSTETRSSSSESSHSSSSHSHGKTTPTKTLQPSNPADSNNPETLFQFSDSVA
Experiment: biochemical
Format: binding
Settings: kinase RPS6KA5(Kin.Dom.2-C-terminal); 1 µM; read-out: RPS6KA5(Kin.Dom.2-C-terminal) (% of control at 1 µM)
remaining activity at 1 µM reference
measure: remaining activity at 1 µM (%)

>>> reported_value("Cn1c(=O)n(-c2ccc(C(C)(C)C#N)cc2)c2c3cc(-c4cnc5ccccc5c4)ccc3ncc21")
100
>>> reported_value("Nc1cc(C(F)(F)F)c(-c2cc(N3CCOCC3)nc(N3CCOCC3)n2)cn1")
74
>>> reported_value("FC(F)c1nc2ccccc2n1-c1nc(N2CCOCC2)nc(N2CCOCC2)n1")
100
>>> reported_value("COc1ncc(-c2ccc3nccc(-c4ccnnc4)c3c2)cc1NS(=O)(=O)c1ccc(F)cc1F")
100

---

Biological target: panel of 442 kinases (Homo sapiens, UniProt O15111)
Construct: purchased Ambit Biosciences (scanMAXX KINOMEscan)
Sequence (O15111 whole entry): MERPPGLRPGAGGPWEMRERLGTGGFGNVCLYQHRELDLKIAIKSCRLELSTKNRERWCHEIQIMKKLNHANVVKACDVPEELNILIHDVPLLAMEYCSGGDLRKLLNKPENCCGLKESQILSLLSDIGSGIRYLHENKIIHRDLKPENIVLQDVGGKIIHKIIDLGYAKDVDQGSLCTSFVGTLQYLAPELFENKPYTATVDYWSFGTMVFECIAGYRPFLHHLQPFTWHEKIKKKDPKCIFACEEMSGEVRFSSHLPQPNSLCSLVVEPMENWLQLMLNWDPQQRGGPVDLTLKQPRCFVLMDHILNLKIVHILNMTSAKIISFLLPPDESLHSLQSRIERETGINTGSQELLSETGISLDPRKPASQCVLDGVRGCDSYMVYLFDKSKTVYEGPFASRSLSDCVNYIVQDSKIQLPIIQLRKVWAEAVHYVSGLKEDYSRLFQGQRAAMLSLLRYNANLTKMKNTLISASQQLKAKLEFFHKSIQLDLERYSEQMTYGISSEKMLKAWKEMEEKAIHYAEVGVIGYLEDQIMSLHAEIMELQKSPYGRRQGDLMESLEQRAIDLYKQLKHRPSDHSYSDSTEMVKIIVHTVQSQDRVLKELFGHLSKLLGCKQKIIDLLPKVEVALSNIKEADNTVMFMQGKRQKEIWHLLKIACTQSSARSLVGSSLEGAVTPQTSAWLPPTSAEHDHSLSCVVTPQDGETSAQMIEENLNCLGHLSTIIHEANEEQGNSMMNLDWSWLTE
Experiment: biochemical
Format: binding
Settings: kinase IKK-alpha; 1 µM; read-out: % of control at 1 µM
remaining activity at 1 µM reference
measure: remaining activity at 1 µM (%)

>>> reported_value("COc1ncc(-c2ccc3nccc(-c4ccnnc4)c3c2)cc1NS(=O)(=O)c1ccc(F)cc1F")
100
>>> reported_value("Nc1cc(C(F)(F)F)c(-c2cc(N3CCOCC3)nc(N3CCOCC3)n2)cn1")
59
>>> reported_value("FC(F)c1nc2ccccc2n1-c1nc(N2CCOCC2)nc(N2CCOCC2)n1")
73
>>> reported_value("Cn1c(=O)n(-c2ccc(C(C)(C)C#N)cc2)c2c3cc(-c4cnc5ccccc5c4)ccc3ncc21")
63

---

Target: panel of 442 kinases (Homo sapiens)
Construct: purchased Ambit Biosciences (scanMAXX KINOMEscan)
Experiment: biochemical
Type: binding
Conditions: kinase PKAC-beta; 1 µM; read-out: PKAC-beta (% of control at 1 µM)
remaining activity at 1 µM reference
measure: remaining activity at 1 µM (%)

>>> reported_value("Cn1c(=O)n(-c2ccc(C(C)(C)C#N)cc2)c2c3cc(-c4cnc5ccccc5c4)ccc3ncc21")
90
>>> reported_value("COc1ncc(-c2ccc3nccc(-c4ccnnc4)c3c2)cc1NS(=O)(=O)c1ccc(F)cc1F")
100
>>> reported_value("FC(F)c1nc2ccccc2n1-c1nc(N2CCOCC2)nc(N2CCOCC2)n1")
100
>>> reported_value("Nc1cc(C(F)(F)F)c(-c2cc(N3CCOCC3)nc(N3CCOCC3)n2)cn1")
79

// data source = paper PMC5564600
